Items are presented alongside their recorded inhibition at 10 µM.
- Test system: Human immunodeficiency virus 1
- PROTOCOL_DESCRIPTION: Antiviral activity against HIV1 NL4.3-Ren infected in human MT2 cells assessed as inhibition of viral growth at 10 uM measured 48 hrs post infection by luminometry
- Assay type: functional
- EXPERIMENTAL_PARAMETERS: Human immunodeficiency virus 1, NL4.3-Ren, MT2, 48 h

Examples with their reported inhibition at 10 µM follow.
Ask | Look up and report measured inhibition at 10 µM for this entry: C=C(C)[C@@H]1CC[C@]2(COC(=O)c3cccc4ccccc34)CC[C@]3(C)[C@H](CC[C@@H]4[C@@]5(C)CC[C@H](OC(=O)c6cccc7ccccc67)C(C)(C)[C@@H]5CC[C@]43C)[C@@H]12
Reply | < 50%

Ask | Look up and report measured inhibition at 10 µM for this entry: C=C(C)[C@@H]1CC[C@]2(CO)CC[C@]3(C)[C@H](CC[C@@H]4[C@@]5(C)CC[C@@H](O)C(C)(C)[C@@H]5CC[C@]43C)[C@@H]12 [3-EPI-BETULIN]
Reply | > 50%

Ask | Look up and report measured inhibition at 10 µM for this entry: C=C(C)[C@@H]1CC[C@]2(CO)CC[C@]3(C)[C@H](CC[C@@H]4[C@@]5(C)[C@H](O)C[C@@H](O)C(C)(C)[C@@H]5CC[C@]43C)[C@@H]12
Reply | < 50%

---
Ask | Look up and report measured inhibition at 10 µM for this entry: C=C(C=O)[C@@H]1CC[C@]2(C)CC[C@]3(C)[C@H](CC[C@@H]4[C@@]5(C)CCC(=O)C(C)(C)[C@@H]5CC[C@]43C)[C@@H]12
Reply | > 50%

Ask | Look up and report measured inhibition at 10 µM for this entry: C=C(C)[C@@H]1CC[C@]2(CO)CC[C@]3(C)[C@H](CC[C@@H]4[C@@]5(C)CC[C@H](O)C(C)(C)[C@@H]5CC[C@]43C)[C@@H]12
Reply | < 50%
